ASSAY REMARKS: in vitro
DETAILS: human, liver microsomes
PARAMETER MEASURED: half-life at 1 h, 1 µM (min)
Numbers only here, please. The scale is min.

Tell me the measured half-life at 1 h, 1 µM of "CC(C)c1ccc(C(=O)N(CC(=O)NCc2ccccc2)Cc2ccc(C(=O)NO)cc2)cc1" , please.
12.4

---

ASSAY REMARKS: Selectivity index, ratio of IC50 for HEK293 cells to IC50 for CQ-sensitive asexual ring-stage Plasmodium falciparum 3D7 infected in erythrocytes
DETAILS: human
PARAMETER MEASURED: selectivity ratio
Keep the answer to the number alone.

Tell me the measured selectivity ratio of "CC(C)c1ccc(C(=O)N(CC(=O)NCc2ccccc2)Cc2ccc(C(=O)NO)cc2)cc1" , please.
1100

---

ASSAY REMARKS: Selectivity index, ratio of IC50 for HEK293 cells to IC50 for multidrug-resistant asexual ring-stage Plasmodium falciparum Dd2 infected in erythrocytes
DETAILS: human
PARAMETER MEASURED: selectivity ratio
Keep the answer to the number alone.

Tell me the measured selectivity ratio of "CC(C)c1ccc(C(=O)N(CC(=O)NCc2ccccc2)Cc2ccc(C(=O)NO)cc2)cc1" , please.
284

---

System: Plasmodium falciparum
ASSAY REMARKS: Antiplasmodial activity against multidrug-resistant asexual ring-stage Plasmodium falciparum Dd2 infected in erythrocytes assessed as parasitic growth inhibition measured after 72 hrs by ELISA
Format: functional, organism-based
DETAILS: Dd2, Erythrocyte
PARAMETER MEASURED: pIC50
A value of pIC50 is the negative decimal logarithm of a concentration given in moles per litre.

Tell me the measured pIC50 of "CC(C)c1ccc(C(=O)N(CC(=O)NCc2ccccc2)Cc2ccc(C(=O)NO)cc2)cc1" , please.
6.61

---

ASSAY REMARKS: Cytotoxicity against human NFF cells incubated for 72 hrs by SRB assay
PARAMETER MEASURED: IC50 at 72 h (nM)
Numbers only here, please. The scale is nM.

The examples below pair each entry with its known result.
[
  {
    "COMPOUND": "O=C(/C=C/c1cccc(S(=O)(=O)Nc2ccccc2)c1)NO [BELINOSTAT]",
    "IC50 at 72 h / nM": 2370
  },
  {
    "COMPOUND": "C/C=C1\\NC(=O)[C@H]2CSSCC/C=C/[C@H](CC(=O)N[C@H](C(C)C)C(=O)N2)OC(=O)[C@H](C(C)C)NC1=O [ROMIDEPSIN]",
    "IC50 at 72 h / nM": 1
  }
]

Now take the following compound into account.
Tell me the measured IC50 at 72 h of Cc1[nH]c2ccccc2c1CCNCc1ccc(/C=C/C(=O)NO)cc1 [PANOBINOSTAT] , please.
70

---

ASSAY REMARKS: Cytotoxicity against HEK293 cells incubated for 24 hrs by Neutral Red Uptake assay
DETAILS: human
PARAMETER MEASURED: IC50 at 24 h (µM)
Numbers only here, please. The scale is µM.

[
  {
    "MOLECULE": "CCN(CC)CCCC(C)Nc1ccnc2cc(Cl)ccc12 (configuration not stated) [CHLOROQUINE]",
    "IC50 at 24 h [µM]": 265
  }
]

Now take the following molecule into account.
Tell me the measured IC50 at 24 h of "CC(C)c1ccc(C(=O)N(CC(=O)NCc2ccccc2)Cc2ccc(C(=O)NO)cc2)cc1" , please.
69

Taken from ChEMBL document CHEMBL5614420.
